test: chemical genetic growth profiling, strain panel (AID 1159580);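 also: tested at 20 µM; growth read once vehicle control cultures reached saturation at 30 °C; 1 = growth at the plate median or of vehicle wells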; conditions: S. cerevisiae deletion strains, growth OD, locus YCL011C, strain gbp2, stronger effect = lower value
The campaign covered roughly 5,500 compounds. About 2,000 (36%) were called active. Not shown: some 18% with an inconclusive outcome. The list shows a part of the results.
I'd be grateful if you could share measured normalized growth for these entries.
Answers are plain numbers.

>  <compound>
O=C(c1ccccc1)c1ccc2n1CCC2C(=O)O (centres undefined)

>  <resultValue>
0.974

$$$$
>  <compound>
CNC(=O)Oc1ccccc1OC(C)C

>  <resultValue>
0.994

$$$$
>  <compound>
CC(=O)O[C@@H]1C2CC[C@@H]3C1(C[C@@H](O)[C@@]1(O)[C@@H](C[C@H](O)C1(C)C)[C@]3(C)O)C[C@@]2(C)O (some centres undefined)

>  <resultValue>
0.985

$$$$
>  <compound>
CC(C)c1cc2c(c(O)c1O)[C@@]1(C(=O)O)CCCC(C)(C)C1CC2 (some centres undefined)

>  <resultValue>
0.908

$$$$
>  <compound>
COC(=O)C[C@H]1C(C)(C)[C@@H](OC(C)=O)[C@@H]2CC3=C4CC(=O)O[C@@H](c5ccoc5)[C@]4(C)CCC3[C@@]1(C)C2=O (some centres undefined)

>  <resultValue>
1.01

$$$$
>  <compound>
CC(=O)O[C@H]1CC2CCC3C(CC[C@@]4(C)C3C[C@H]([N+]3(C)CCCCC3)[C@@H]4OC(C)=O)[C@@]2(C)C[C@@H]1N1CCCCC1 (some centres undefined)

>  <resultValue>
1.03

$$$$

For each of the items listed, what is its normalized growth?
1. COc1cc(O)ccc1C(C)=O
2. CNC(C)[C@@H]1CC[C@@H](N)[C@@H](OC2[C@@H](N)C[C@@H](N)[C@H](OC3OC[C@](C)(O)[C@H](NC)[C@H]3O)[C@H]2O)O1 (some centres undefined)
3. C[C@H]1C(=O)CCC2[C@]3(C)CC[C@@]4(C)C5CC(C)(C)CC[C@]5(C)CC[C@]4(C)C3CC[C@@]21C (some centres undefined)
4. Cn1c(=O)[nH]c2ncn(C)c2c1=O
5. O=c1c(O)c(-c2ccccc2)oc2cccc(O)c12
6. O=c1c(O)c(-c2ccccc2)oc2ccc3occc3c12
7. Oc1cccc2cccnc12

Response:
1. 1.03
2. 1.01
3. 1.01
4. 0.966
5. 0.847
6. 0.814
7. 0.0567

Answer for every listed entry: what is its normalized growth? The entries follow.
1. CC(=O)OC[C@@]1(O)C[C@@]23CCC4c5ccoc5CC[C@]4(C)C2CC[C@@H]1C3 (some centres undefined)
2. O=C(O)C1=C(CSc2nnnn2CS(=O)(=O)O)CS[C@@H]2C(NC(=O)[C@H](O)c3ccccc3)C(=O)N12 (some centres undefined)
3. O=C1C=CC(=O)c2c(O)c(Cl)c(Cl)c(O)c21

Response:
1. 0.998
2. 0.963
3. 0.0661

Hi there! I need normalized growth for each item below, if you can.
1. CC(C)=CCC/C(C)=C/CO
2. CN1CCC[C@H]1c1cccnc1

Response:
1: 0.972; 2: 1.03

Look up normalized growth for the entries below, preserving their order.
1. COc1cc([C@@H]2c3cc4c(cc3[C@H](O)[C@H]3COC(=O)[C@H]23)OCO4)cc(OC)c1OC
2. O=C(O)CC[N+](=O)[O-]

Response:
1: 1.01; 2: 1.02

----------
assay: chemical genetic growth profiling, strain panel (AID 1159580); details: S. cerevisiae deletion strains, growth OD, locus YJL115W, strain asf1
In all, about 5,500 compounds went through this assay and about 2,000 (36%) were called active. Another 18% or so got no clear call; they are omitted. No stated cut-off is given here; in the data, active means normalized growth mostly below about 0.91 (no sharp cut-off); inconclusive means no clear call, values can overlap the other calls; inactive means mostly above about 0.92. This is one part of the list.
Use one of these outcomes when replying: active, inactive

Consider the following illustrative entries.
>  <molecule>
O=C(O)CC[N+](=O)[O-]

>  <groupLabel>
inactive

$$$$
>  <molecule>
CC(C)c1cc2c(c(O)c1O)[C@@]1(C(=O)O)CCCC(C)(C)C1CC2 (some centres not stated)

>  <groupLabel>
inactive

$$$$
>  <molecule>
CC12CCC(OC(=O)c3ccccc3)CC1CCc1ccccc12 (configuration not stated)

>  <groupLabel>
inactive

$$$$
>  <molecule>
CC(C)=CCC/C(C)=C/CO

>  <groupLabel>
inactive

$$$$
>  <molecule>
C/C(=C\CO)CC[C@H](C)CCC[C@H](C)CCCC(C)C

>  <groupLabel>
active

$$$$
>  <molecule>
CC(C)[C@@H]1CC[C@@H](C)C[C@H]1OC(=O)c1ccccc1

>  <groupLabel>
inactive

$$$$

Continue with the next molecule.
Prompt: Hi, sorry to bother you, what did the test record for CCCCCC/C=C\CCCCCCCc1cccc(O)c1C(=O)O ?
Response: inactive

----------
assay: chemical genetic growth profiling, strain panel (AID 1159580);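 also: tested at 20 µM; growth read once vehicle control cultures reached saturation at 30 °C; 1 = growth at the plate median or of vehicle wells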; details: S. cerevisiae deletion strains, growth OD, locus YGR092W, strain DBF2
The campaign covered roughly 5,500 compounds. About 2,000 (36%) were called active. Not shown: some 18% with an inconclusive outcome. Rule as the data show it: active = normalized growth mostly below about 0.91 (no sharp cut-off); inconclusive = no clear call, values can overlap the other calls; inactive = mostly above about 0.92. Some of the results follow.
Allowed answers: 1 (yes) (active), 0 (no) (inactive)

>  <molecule>
CCOC(=O)c1cnc(-c2ccccn2)[nH]c1=O

>  <groupLabel>
0 (no)

$$$$
>  <molecule>
O=C(Nc1ccc(F)cc1F)c1cc(Cl)ccc1O

>  <groupLabel>
0 (no)

$$$$
>  <molecule>
Cc1ccc2nc3c(nc2c1)-c1ccccc1C3=O

>  <groupLabel>
1 (yes)

$$$$
>  <molecule>
FC(F)(F)c1c2c(nc3cc(-c4ccco4)nn13)CCC2

>  <groupLabel>
0 (no)

$$$$

# input for lookup
Prompt: Lab log entry: CC1SC(c2cccnc2)N(c2ccc(Cl)cc2)C1=O (stereo not given) — outcome as called in the assay?
Response: 0 (no)

----------
experiment: chemical genetic growth profiling, strain panel (AID 1159580);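 also: tested at 20 µM; growth read once vehicle control cultures reached saturation at 30 °C; 1 = growth at the plate median or of vehicle wells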; conditions: S. cerevisiae deletion strains, growth OD, locus YNL224C, strain SQS1
Screen size: about 5,500 compounds; about 2,000 (36%) were called active. Inconclusive results (about 18%) are left out. No stated cut-off is given here; in the data, active means normalized growth mostly below about 0.91 (no sharp cut-off); inconclusive means no clear call, values can overlap the other calls; inactive means mostly above about 0.92. The list shows a part of the results.
A correct response names exactly one class from 1 (yes) = active, 0 (no) = inactive

Previously resolved entries follow.
>  <compound>
c1cnc2c(c1)ccc1cccnc12

>  <groupLabel>
1 (yes)

$$$$
>  <compound>
O=C(CCc1ccc(O)cc1)c1c(O)cc(O)cc1O

>  <groupLabel>
0 (no)

$$$$
>  <compound>
CN(C)c1cc2c(Nc3ccc4c(cnn4Cc4ccccc4)c3)ncnc2cn1

>  <groupLabel>
0 (no)

$$$$
>  <compound>
CC(=O)CCCCn1c(=O)c2c(ncn2C)n(C)c1=O

>  <groupLabel>
0 (no)

$$$$
>  <compound>
CNC(=O)c1cc2c(cn1)[nH]c1ccccc12

>  <groupLabel>
0 (no)

$$$$

Prompt: What did the test return for C=CC[C@H](N)C(=O)O ?
Response: 0 (no)

Prompt: What did the test return for C[N+](C)(C)CC#CCOC(=O)Nc1cccc(Cl)c1 ?
Response: 0 (no)

Prompt: Called result for O=C(c1ccccc1)c1ccc2n1CCC2C(=O)O (stereo unspecified)
Response: 0 (no)

Prompt: So what was the verdict on CN1C(=O)CCC1c1cccnc1 (stereo unspecified) in this test?
Response: 0 (no)

Prompt: Test call, this compound: CC1=C(C)C(=O)C(CCCCC#CCCCC#CCO)=C(C)C1=O
Response: 0 (no)

Prompt: Which outcome did this test record for the compound O=C(Cc1ccc(Cl)c(Cl)c1)N1CCCCC1CN1CCCC1 (stereo unspecified) ?
Response: 0 (no)

----------
test: chemical genetic growth profiling, strain panel (AID 1159580);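 also: tested at 20 µM; growth read once vehicle control cultures reached saturation at 30 °C; 1 = growth at the plate median or of vehicle wells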; settings: S. cerevisiae deletion strains, growth OD, locus YPL078C, strain atp4, stronger effect = lower value
The campaign covered roughly 5,500 compounds. About 2,000 (36%) were called active. Inconclusive results (about 18%) are left out. The list shows a part of the results.
With a cut-off of 1, any normalized growth strictly below it is called label 1; any normalized growth meeting it or above is called label 0.

Below are worked cases with known answers.
>  <compound>
CCCc1ncc(C[n+]2ccccc2C)c(N)n1

>  <groupLabel>
label 1

$$$$
>  <compound>
CCC[C@@H]1C[C@@H](C(=O)N[C@H]([C@H]2O[C@H](SC)[C@H](O)[C@@H](O)[C@H]2O)[C@H](C)O)N(C)C1

>  <groupLabel>
label 1

$$$$
>  <compound>
CON

>  <groupLabel>
label 0

$$$$
>  <compound>
CC(C)[C@@H]1CC[C@@H](C)CC1=O

>  <groupLabel>
label 1

$$$$
>  <compound>
CC(=O)OC[C@@]1(O)C[C@@]23CCC4c5ccoc5CC[C@]4(C)C2CC[C@@H]1C3 (some centres not stated)

>  <groupLabel>
label 1

$$$$

Prompt: Is 1 strictly greater than the compound's reported normalized growth? compound: O=C(O)C1=C(CSc2nnnn2CS(=O)(=O)O)CS[C@@H]2C(NC(=O)[C@H](O)c3ccccc3)C(=O)N12 (some centres not stated)
Response: label 1

Prompt: hey, is normalized growth for O=C1C=C(O)c2ccccc2C1=O lower than 1 or not?
Response: label 1

Prompt: Confirm or reject: normalized growth of O=C(/C=C/c1ccccc1)c1ccc(O[C@@H]2O[C@H](CO)[C@@H](O)[C@H](O)[C@H]2O)cc1O lies strictly below 1
Response: label 1

Prompt: Consider O=c1c(O)c(-c2ccccc2)oc2ccc3occc3c12 . Does its normalized growth lie strictly below 1?
Response: label 1

Prompt: State whether 1 exceeds normalized growth recorded for O=C(O)[C@H]1/C(=C/CO)O[C@@H]2CC(=O)N21 .
Response: label 1
